# credit: the supplement of paper PMC10127200

- System: DU145
- ASSAY INFO: Euclidean distance of Cell Painting phenotypic profile (signed KS, 77 features) to DMSO centroid (dimensionless distance); 5 or 10 uM (library dependent); higher = stronger phenotypic change vs DMSO (phenoactivity)
- ASSAY CONDITIONS: 48 h
Structures can show the parent of a compound that is named as a salt.
Threshold rule: Euclidean distance greater than or equal to 1 is condition met; below that, condition not met.

COMPOUND	CLASS
C1CCN2C[C@@H]3C[C@@H](CN4CCCC[C@@H]34)[C@H]2C1 [(-)-Sparteine Sulfate]	condition not met
N=C(N)c1ccc(N=NNc2ccc(C(=N)N)cc2)cc1 [Diminazene Aceturate]	condition met
N[C@@H](Cc1cc(I)c(Oc2ccc(O)c(I)c2)c(I)c1)C(=O)O [Triiodothyronine]	condition met
COc1cc2ncnc(Nc3ccc(O)c(Br)c3)c2cc1OC	condition met
N=C1CCCN1Cc1[nH]c(=O)[nH]c(=O)c1Cl [Tipiracil hydrochloride]	condition not met
